Measured values drawn from paper PMC5766207 for this set.

Target: T1, σJ (Mycobacterium tuberculosis, UniProt L0TCG5 1-312)
T1 sequence: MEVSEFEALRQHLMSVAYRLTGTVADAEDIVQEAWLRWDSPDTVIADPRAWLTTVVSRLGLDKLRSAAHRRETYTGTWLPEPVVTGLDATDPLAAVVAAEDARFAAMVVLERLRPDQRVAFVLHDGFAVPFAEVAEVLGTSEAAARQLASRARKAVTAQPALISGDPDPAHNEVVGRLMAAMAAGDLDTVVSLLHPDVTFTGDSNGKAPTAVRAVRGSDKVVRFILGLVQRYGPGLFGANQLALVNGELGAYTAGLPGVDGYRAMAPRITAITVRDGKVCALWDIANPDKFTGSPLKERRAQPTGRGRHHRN
Assay: EMSA
value.type: pKd
pKd field: float, defined as -log10 of concentration (mol/L).

Form field pKd, entry wt-sigIp (dsDNA) DNA 1: GCTGTCACATTCGGCGGGGCTGTCTCGTCCTTGA DNA 2: TCAAGGACGAGACAGCCCCGCCGAATGTGACAGC : 5.30
